assay-protocol: CCTE_Simmons_CellTiterGLO_HEK293T: Viability Assessment in CCTE's Assays for Thyroperoxidase (TPO) Inhibition, Simmons Lab (AID 2283665)
Records with an inconclusive call do not appear. Active and inactive are the calls of the source. How the source made its calls: active means hit-call score of the fitted dose curve at least 0.9, where 1 is the maximum; inconclusive means response in the unintended direction; inactive means score below 0.9.
Select the matching outcome among active, inactive

Look over these answered cases.
{"structure": "C[C@@H](Oc1ccc(CNC(=O)c2cccnc2Oc2ccc3c(c2)OCO3)c(F)c1)C(=O)O", "group": "inactive"}
{"structure": "CCc1ccc(O)c(C(C)(C)C)c1", "group": "active"}
{"structure": "Cc1cccc(O)c1C", "group": "inactive"}
{"structure": "NC(=O)N(O)[C@@H]1COc2cc(OCc3ccccc3)ccc21", "group": "inactive"}

stdin: // return assay outcome for `CCn1nc(C)c2c1C(=O)NCC(c1ccc(O)cc1)=N2`
stdout: inactive

* * *

tested-system: Bile acid receptor (Homo sapiens) (UniProt Q96RI1)
Sequence (Q96RI1 whole entry, looked up): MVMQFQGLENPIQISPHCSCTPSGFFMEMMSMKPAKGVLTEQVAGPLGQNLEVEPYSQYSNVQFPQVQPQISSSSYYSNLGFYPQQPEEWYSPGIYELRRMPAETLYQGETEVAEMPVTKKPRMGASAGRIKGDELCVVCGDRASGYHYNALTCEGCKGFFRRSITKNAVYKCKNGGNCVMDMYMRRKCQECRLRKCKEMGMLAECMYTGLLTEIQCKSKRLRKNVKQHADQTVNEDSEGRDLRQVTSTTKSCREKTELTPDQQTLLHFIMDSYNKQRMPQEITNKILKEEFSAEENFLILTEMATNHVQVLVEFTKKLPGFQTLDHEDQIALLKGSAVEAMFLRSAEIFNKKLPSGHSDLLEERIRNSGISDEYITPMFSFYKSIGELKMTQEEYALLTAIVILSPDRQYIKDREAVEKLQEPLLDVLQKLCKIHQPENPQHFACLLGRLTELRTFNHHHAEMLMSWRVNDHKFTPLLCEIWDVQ
assay-protocol: ATG_FXR_TRANS: Attagene TRANS-FACTORIAL HepG2 Assay for Farnesoid X Receptor (FXR) (AID 2282979);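 further: hits raise reporter mRNA above DMSO so AC50 marks FXR activation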
condition-parameters: HepG2 Attagene TRANS FXR-GAL4 reporter transcription
Results filed as inconclusive are left out. Active and inactive are the calls of the source. Rule for the calls: active = hit-call score of the fitted dose curve at least 0.9, where 1 is the maximum; inconclusive = response in the unintended direction; inactive = score below 0.9.
Select the matching outcome among True for active, False for inactive

Look over these answered cases.
{"structure": "O=C(O)c1ccc2c(c1)nc(C(=O)NC1CCN(C3CC3)CC1)n2Cc1cc(-c2ccc(Cl)s2)on1", "group": "False"}
{"structure": "NCC(F)(F)C(F)(F)C(F)(F)C(F)(F)F", "group": "False"}
{"structure": "O=C(O)c1cccc(C(=O)O)c1", "group": "False"}
{"structure": "OC[C@H]1O[C@@](CO)(O[C@H]2O[C@H](CO)[C@@H](O)[C@H](O)[C@H]2O)[C@@H](O)[C@@H]1O", "group": "False"}

stdin: // return assay outcome for `COc1cc(C(C)C)c2c(c1)S(=O)(=O)N(COc1cc(=O)n3cccc(OCCN4CCCCC4)c3n1)C2=O`
stdout: True

* * *

assay-protocol: ATG_PXRE_CIS: Attagene CIS-FACTORIAL HepG2 Assay for human Pregnane X Receptor Element (PXRE) (AID 2282957)
condition-parameters: HepG2 Attagene CIS-FACTORIAL PXRE reporter, mRNA; actives raise or lower the signal
Experimental: ATG_CIS is a cell-based, multiplexed-readout assay that uses HepG2, a human liver cell line, with measurements taken at 24 hours after chemical dosing in a 24-well plate.ATG_PXRE_CIS is one of 52 assay component(s) measured or calculated from the ATG_CIS assay. […] This assay endpoint, ATG_PXRE_CIS, was analyzed with bidirectional fitting relative to DMSO as the negative control and baseline of activity. […]
The source made the active and inactive calls. The calls were made as follows: active = hit-call score of the fitted dose curve at least 0.9, where 1 is the maximum; inactive = score below 0.9.
Select the matching outcome among 1 (yes) for active, 0 (no) for inactive

{"compound": "C[C@@H](Oc1ccc(CNC(=O)c2cccnc2Oc2ccc3c(c2)OCO3)c(F)c1)C(=O)O", "group": "0 (no)"}
{"compound": "Cc1nccn1-c1ccc(Sc2cccc(C3(C(N)=O)CCOCC3)c2)cc1", "group": "0 (no)"}
{"compound": "Cn1c(=O)c2[nH]cnc2n(C)c1=O", "group": "0 (no)"}

stdin: // return assay outcome for `OCCNCCO`
stdout: 0 (no)

stdin: // return assay outcome for `Cc1nc(-c2ccccn2)ncc1C(=O)Nn1cc(C)c2cc(F)ccc21`
stdout: 1 (yes)

stdin: // return assay outcome for `OCCC(F)(F)C(F)(F)C(F)(F)C(F)(F)F`
stdout: 0 (no)

stdin: // return assay outcome for `CCCCCCOC(=O)CC(CC(=O)OCCCCCC)(OC(=O)CCC)C(=O)OCCCCCC`
stdout: 1 (yes)

stdin: // return assay outcome for `CCOC(N)=O`
stdout: 0 (no)

stdin: // return assay outcome for `COS(C)(=O)=O`
stdout: 0 (no)

stdin: // return assay outcome for CC(C)CC(C)O (stereo not given)
stdout: 0 (no)

stdin: // return assay outcome for `OCc1ccccc1`
stdout: 0 (no)

stdin: // return assay outcome for `CCCC(CCC)C(=O)O`
stdout: 0 (no)

stdin: // return assay outcome for `COc1cc2c(c(OC)c1OC)-c1ccc(OC)c(=O)cc1[C@@H](NC(C)=O)CC2`
stdout: 0 (no)

stdin: // return assay outcome for `CCc1cccc(CC)c1N`
stdout: 1 (yes)

stdin: // return assay outcome for `CCCCCCCC/C=C\CCCCCCCC(=O)OC[C@@H](O)[C@H]1OC[C@H](O)[C@H]1O`
stdout: 1 (yes)

stdin: // return assay outcome for `Cn1cc[nH]c1=S`
stdout: 0 (no)

stdin: // return assay outcome for `c1ccc2c(c1)-c1cccc3c1c-2cc1ccccc13`
stdout: 0 (no)

stdin: // return assay outcome for `OC(O)(C(F)C(O)(O)C(F)(F)F)C(F)(F)F`
stdout: 0 (no)

stdin: // return assay outcome for `O=c1[nH]cnc2c1ncn2[C@H]1CC[C@@H](CO)O1`
stdout: 0 (no)

stdin: // return assay outcome for `CCN(CC)C(=S)SSC(=S)N(CC)CC`
stdout: 1 (yes)
